Experimental System: Cellular tumor antigen p53 (Homo sapiens)
Experimental Details: TOX21_p53_BLA_p3_ratio: Tox21 HCT-116 p53 Agonism Beta-lactamase Assay, Ratio, Phase 3 (AID 2283596)
Records with an inconclusive call do not appear. Activity calls are given as the source filed them. The calls were made as follows: active = hit-call score of the fitted dose curve at least 0.9, where 1 is the maximum; inconclusive = response in the unintended direction; inactive = score below 0.9.
Pick from active, inactive when you respond.

Some solved entries appear below for comparison.
[[record]]
chemical_structure = "Oc1ccc(Cl)cc1Cl"
qualitative_label = "inactive"

[[record]]
chemical_structure = "ClC1=C(Cl)[C@]2(Cl)[C@@H]3[C@@H]4C[C@@H]([C@H]5O[C@@H]45)[C@@H]3[C@@]1(Cl)C2(Cl)Cl"
qualitative_label = "inactive"

[[record]]
chemical_structure = "Nn1cnnc1"
qualitative_label = "inactive"

[[record]]
chemical_structure = "Cc1ccc(O)c(C)c1"
qualitative_label = "inactive"

[[record]]
chemical_structure = "CC(c1ccc(O)cc1)(c1ccc(O)cc1)c1ccc(O)cc1"
qualitative_label = "active"


Req: Entry CO/C=C(/C(=O)OC)c1ccccc1COc1cccc(C(F)(F)F)n1 : call = ?
Resp: active
